Test: Systemic pharmacokinetics and total colon tissue distribution after single oral administration
Type: in vivo, mouse
Conditions: male, C57BL/6, mouse, plasma; mice, oral 5 mg/kg, 4 h, compound 1 measured; read-out: Mean plasma concentration
Method: Studies were conducted by Sai Life Sciences (Hinjewadi, Pune, India) to investigate the systemic pharmacokinetics and total colon tissue distribution of the compound of the invention. In particular, pharmacokinetic studies were carried out in male C57BL/6 mice following a single oral administration of the compound.
Where a name gives a salt, the structure may show the parent alone.
ENDPOINT_LABEL: concentration at 4 h (ng/mL)
Report the figure in ng/mL without appending any unit label.

Item COc1cc(Nc2cc(Oc3ccc(NC(=O)Nc4cc(C(C)(C)C)cc(NS(C)(=O)=O)c4OC)c4ccccc34)ccn2)ccc1C(=O)O [1 (sodium salt)] : provide concentration at 4 h
5.2

---

Experiment: Systemic pharmacokinetics and total colon tissue distribution after single oral administration
Format: in vivo, mouse
Conditions: male, C57BL/6, mouse, plasma; mice, oral 5 mg/kg, 8 h, compound 1 measured; read-out: Mean plasma concentration
Counter-ions that a name gives are not always drawn.
ENDPOINT_LABEL: concentration at 8 h (ng/mL)
Report the figure in ng/mL without appending any unit label.

Item COc1cc(Nc2cc(Oc3ccc(NC(=O)Nc4cc(C(C)(C)C)cc(NS(C)(=O)=O)c4OC)c4ccccc34)ccn2)ccc1C(=O)O [1 (sodium salt)] : provide concentration at 8 h
0.6

---

Experiment: Solubility in fasted-state simulated colonic fluid (FaSSCoF)
Type: physicochemical
Details: fasted-state simulated colonic fluid (FaSSCoF), 25 °C, pH 6.5, fassgf or other biorelevant, thermodynamic from solid, pH 6.5, 25° C., 24 h; read-out: pH 6.5 FaSSCoF Solubility Run 1
Structures can show the parent of a compound that is named as a salt.
ENDPOINT_LABEL: solubility thermodynamic at 24 h (µg/mL)
Report the figure in µg/mL without appending any unit label.

COMPOUND	solubility thermodynamic at 24 h (µg/mL)
COc1cc(Nc2cc(Oc3ccc(NC(=O)Nc4cc(C(C)(C)C)cc(NS(C)(=O)=O)c4OC)c4ccccc34)ccn2)ccc1C(=O)O [1 (sodium salt)]	31

Let us move to another entry and its solubility thermodynamic at 24 h.
Item COc1cc(Nc2cc(Oc3ccc(NC(=O)Nc4cc(C(C)(C)C)cc(NS(C)(=O)=O)c4OC)c4ccccc34)ccn2)ccc1C(=O)O [1 (hydrochloride salt)] : provide solubility thermodynamic at 24 h
16

---

Biological target: human ether a go-go (hERG) channel (Homo sapiens (Human))
Sequence (Q12809 whole entry): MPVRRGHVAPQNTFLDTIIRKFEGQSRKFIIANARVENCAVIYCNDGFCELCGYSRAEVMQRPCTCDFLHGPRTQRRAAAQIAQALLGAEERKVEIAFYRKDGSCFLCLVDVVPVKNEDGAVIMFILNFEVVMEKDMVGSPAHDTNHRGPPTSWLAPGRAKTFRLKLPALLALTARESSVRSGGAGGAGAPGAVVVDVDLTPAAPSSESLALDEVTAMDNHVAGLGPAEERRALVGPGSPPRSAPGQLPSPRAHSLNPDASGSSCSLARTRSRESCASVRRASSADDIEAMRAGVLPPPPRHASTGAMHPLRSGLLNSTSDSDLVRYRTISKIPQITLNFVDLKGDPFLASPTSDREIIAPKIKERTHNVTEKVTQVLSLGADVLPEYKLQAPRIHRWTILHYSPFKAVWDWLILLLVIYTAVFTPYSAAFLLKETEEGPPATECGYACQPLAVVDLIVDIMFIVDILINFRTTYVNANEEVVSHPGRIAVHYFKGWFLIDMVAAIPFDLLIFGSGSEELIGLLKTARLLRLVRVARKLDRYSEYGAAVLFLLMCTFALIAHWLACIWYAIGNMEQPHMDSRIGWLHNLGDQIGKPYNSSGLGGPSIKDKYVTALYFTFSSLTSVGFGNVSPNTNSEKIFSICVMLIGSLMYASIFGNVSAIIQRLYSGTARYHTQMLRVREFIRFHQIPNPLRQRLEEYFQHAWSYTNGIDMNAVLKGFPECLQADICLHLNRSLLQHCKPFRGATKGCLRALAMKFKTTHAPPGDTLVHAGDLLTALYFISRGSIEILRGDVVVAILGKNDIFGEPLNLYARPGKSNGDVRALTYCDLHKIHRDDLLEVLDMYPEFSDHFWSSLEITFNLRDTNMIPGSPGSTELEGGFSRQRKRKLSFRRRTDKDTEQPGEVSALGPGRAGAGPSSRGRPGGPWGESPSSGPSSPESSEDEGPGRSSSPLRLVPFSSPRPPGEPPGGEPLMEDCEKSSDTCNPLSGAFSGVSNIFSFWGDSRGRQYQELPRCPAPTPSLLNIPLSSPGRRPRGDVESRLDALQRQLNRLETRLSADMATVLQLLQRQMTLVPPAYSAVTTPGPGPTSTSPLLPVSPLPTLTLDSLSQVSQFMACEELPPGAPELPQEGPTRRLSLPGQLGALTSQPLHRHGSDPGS
Test: hERG inhibition, IonWorks patch clamp electrophysiology
Conditions: IonWorks patch clamp
pIC50: −log10 of the molar value.
ENDPOINT_LABEL: pIC50

Item COc1cc(Nc2cc(Oc3ccc(NC(=O)Nc4cc(C(C)(C)C)cc(NS(C)(=O)=O)c4OC)c4ccccc34)ccn2)ccc1C(=O)O : provide pIC50
< 5.48

---

Experiment: Systemic pharmacokinetics and total colon tissue distribution after single oral administration
Format: in vivo, mouse
Settings: male, C57BL/6, mouse, total colon; mice, oral 5 mg/kg, 0.5 h, compound 1 measured; read-out: Mean total colon level
Structures can show the parent of a compound that is named as a salt.
ENDPOINT_LABEL: concentration at 0.5 h (ng/g)
Report the figure in ng/g without appending any unit label.

Item COc1cc(Nc2cc(Oc3ccc(NC(=O)Nc4cc(C(C)(C)C)cc(NS(C)(=O)=O)c4OC)c4ccccc34)ccn2)ccc1C(=O)O [1 (sodium salt)] : provide concentration at 0.5 h
4.3
